B1: CPEB3 Ribozyme (parent)
chain: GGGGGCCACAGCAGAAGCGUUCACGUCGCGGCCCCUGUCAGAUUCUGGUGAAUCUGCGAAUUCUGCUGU

# Variants of: B1
# Test Details: self-cleavage, relative activity (ratio to wild type); higher = more cleavage; co-transcriptional
Value Type: self-cleavage
Hey, just send me the number, nothing else.

U49A U62A | 0.99
G19U A40G | 0.332
G47A A51G | 1.02
A8G C22A | 0.136
C29G C57A | 0.215

Let us move to another entry and its self-cleavage.
Look up and state reported self-cleavage for G25A U43G 0.119
